test-target: T1, RTEL1 HHD2 (Homo sapiens, UniProt Q9NZ71 1053-1147)
T1 sequence: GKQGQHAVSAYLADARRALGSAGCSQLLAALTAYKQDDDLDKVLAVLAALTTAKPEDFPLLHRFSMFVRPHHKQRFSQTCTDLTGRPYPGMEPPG
experiment: fluorescence anisotropy; 0.5 mM Mg2+; 20 mM Tris pH 7.5, 50 mM KCl, 0.5 mM MgCl2, 10% glycerol, 0.1% Igepal, 10 nM substrate; EMSA at room temperature 15 min (0-160 nM protein), FA at 25 C (0-2500 nM protein); Hill-slope fit
conditions: protein: recombinant; tags: N-terminal 6His-Trx removed by TEV; label: 5' 6-FAM on strand 1; fork: 23 bp duplex, T15 arms (3' on strand 1, 5' on strand 2)
measured-attribute: Kd (nM)
Answer format: numeric, nM implied, no suffix.

stdin: Can you share its Kd? I mean this binder: DNA fork (D1L:D3L) (dsDNA) DNA 1: CTACTACCCCCACCCTCACAACCTTTTTTTTTTTTTTT DNA 2: TTTTTTTTTTTTTTTGGTTGTGAGGGTGGGGGTAGTAG
stdout: 254
